Assay: log P determination
Format: physicochemical
Details: HPLC, gradient method, acetonitrile/0.1% aqueous phosphoric acid (EEC Directive 79/831 Annex V. A8)
test readout: log p

Worked examples, 4 molecules total:
{"columns": ["molecule", "log p"],
 "data": [
  ["Cc1ccc(-c2c(Cl)nc3c(C(=O)NN4CCOCC4)cnn3c2NC(C)C(C)(C)C)c(Cl)c1 (stereo not drawn)", 4.41],
  ["CC(C)C(C)Nc1c(-c2ccc(F)cc2F)c(Cl)nc2c(C(=O)NN3CCOCC3)cnn12 (stereo not drawn)", 3.46],
  ["CC(Nc1c(-c2ccc(F)cc2F)c(Cl)nc2c(C(=O)NN3CCOCC3)cnn12)C(C)(C)C (stereo not drawn)", 3.76],
  ["Cc1ccsc1-c1c(Cl)nc2c(C(=O)NN3CCOCC3)cnn2c1NC(C)C(C)C (stereo not drawn)", 3.63]
]}

A = CNC(=O)NC(=O)c1cnn2c(N[C@H](C)C(C)C)c(-c3ccc(F)cc3C)c(Cl)nc12
B = Cc1cc(F)ccc1-c1c(Cl)nc2c(C(=O)Nc3ncccn3)cnn2c1NC(C)C(C)C (stereo not drawn)
Q: Looking at recorded values for log p, does A or B come in lower? Indicate which entry you chose by stating its label.
Result: A

###

Assay: log P determination
Assay type: physicochemical
Conditions: EEC Directive 79/831 Annex V. A8 by HPLC (gradient method, acetonitrile/0.1% aqueous phosphoric acid)
test readout: log p

{"columns": ["molecule", "log p"],
 "data": [
  ["CC1CCN(c2c(-c3ccc(F)cc3Cl)c(Cl)nc3c(C(=O)Nc4cnn(C)c4)cnn23)CC1", 4.31],
  ["Cc1ccc(-c2c(Cl)nc3c(C(=O)NS(C)(=O)=O)cnn3c2NC(C)C(C)(C)C)c(Cl)c1 (centres unmarked)", 4.76],
  ["CC(Nc1c(-c2ccc(F)cc2Cl)c(Cl)nc2c(C(=O)Nc3cnn(C)c3)cnn12)C(C)(C)C (centres unmarked)", 4.26],
  ["CC(Nc1c(-c2ccc(F)cc2Cl)c(Cl)nc2c(C(=O)Nc3ccn(C)n3)cnn12)C(C)(C)C (centres unmarked)", 4.69],
  ["CC(C)C(C)Nc1c(-c2ccc(F)cc2Cl)c(Cl)nc2c(C(=O)Nc3ccn(C)n3)cnn12 (centres unmarked)", 4.35],
  ["CC(Nc1c(-c2ccc(F)cc2Cl)c(Cl)nc2c(C(=O)Nc3ncn(C)n3)cnn12)C(C)(C)C (centres unmarked)", 3.91],
  ["CC1CCN(c2c(-c3ccc(F)cc3Cl)c(Cl)nc3c(C(=O)Nc4ccn(C)n4)cnn23)CC1", 4.66],
  ["CC1CCN(c2c(-c3ccc(F)cc3Cl)c(Cl)nc3c(C(=O)Nc4ccnn4C)cnn23)CC1", 4.47],
  ["CC(C)C(C)Nc1c(-c2ccc(F)cc2Cl)c(Cl)nc2c(C(=O)Nc3cnn(C)c3)cnn12 (centres unmarked)", 3.95],
  ["CC(C)C(C)Nc1c(-c2ccc(F)cc2Cl)c(Cl)nc2c(C(=O)Nc3ccnn3C)cnn12 (centres unmarked)", 4.18],
  ["CC(C)C(C)Nc1c(-c2c(Cl)cc(OC(F)(F)F)cc2Cl)c(Cl)nc2c(C(=O)NS(C)(=O)=O)cnn12 (racemic)", 4.85]
]}

###

Experiment: log P determination
Assay type: physicochemical
Conditions: intermediates of formula drawing 23, table
test readout: log P

{"columns": ["compound", "test readout", "value measured"],
 "data": [
  ["COC(=O)c1cnn2c(N3CCC(C)CC3)c(-c3c(F)cccc3Cl)c(Cl)nc12", "log P", 4.61],
  ["COC(=O)c1cnn2c(NC(C)C(C)(C)C)c(-c3ccc(F)cc3Cl)c(Cl)nc12 (stereo not shown)", "log P", 4.68],
  ["COC(=O)c1cnn2c(NC(C)C(C)(C)C)c(-c3c(F)cccc3Cl)c(Cl)nc12 (stereo not shown)", "log P", 4.51],
  ["COC(=O)c1cnn2c(NC(C)C(C)(C)C)c(-c3c(F)cc(F)cc3F)c(Cl)nc12 (stereo not shown)", "log P", 4.93],
  ["COC(=O)c1cnn2c(NC(C)C(C)C)c(-c3c(F)cccc3Cl)c(Cl)nc12 (stereo not shown)", "log P", 4.12],
  ["COC(=O)c1cnn2c(NC(C)C(C)C)c(-c3ccc(F)cc3Cl)c(Cl)nc12 (stereo not shown)", "log P", 4.31],
  ["COC(=O)c1cnn2c(NC(C)C(F)(F)F)c(-c3c(F)cc(F)cc3F)c(Cl)nc12 (stereo not shown)", "log P", 3.53]
]}
